System: THP-1-HMGB1-Lucia cells
Method summary: TBZ-induced necroptosis screening by HMGB1-luciferase release
Type: cell-based, human
Condition: Homo sapiens; 20 μM compound with TBZ, 8 h; TBZ alone = 100, DPBS = 0; read-out: % Inhibition (luciferase activity relative to TBZ-treated supernatant)
Output rule met for activity at 20 µM not less than 4%; output rule not met otherwise.

Problem: Is activity at 20 µM for CC(C)[C@H](CO)Nc1nc(Nc2cccc(Cl)c2)c2ncn(C(C)C)c2n1 at or above 4%?
Result: rule not met

====

Tested on: THP-1-HMGB1-Lucia cells
Method summary: TBZ-induced necroptosis screening by HMGB1-luciferase release
Assay type: cell-based, human
Condition: Homo sapiens; 20 μM compound with TBZ, 8 h; TBZ alone = 100, DPBS = 0; read-out: % Inhibition (luciferase activity relative to TBZ-treated supernatant)
Description: To identify potential inhibitors of the necroptosis pathway targeting MLKL or the process of p-MLKL pore formation on the membrane, we screened a library of 2150 compounds, including FDA-approved drugs and those in phase 1–3 clinical trials, using THP-1-HMGB1-Lucia™ cells expressing the HMGB1-luciferase fusion protein. The cells were treated with a necroptosis-inducing mixture containing TNF-α, BV6, and Z-VAD-FMK (TBZ) in addition to the compound library (Fig. 1A). […]
Checkbox rule: activity at 20 µM lower than 8% = satisfied; activity at 20 µM not lower than 8% = not satisfied.

Record excerpt, results attached:
# Compound, Assigned category
data = [
    ("Cc1ccc(-n2nc(C(C)(C)C)cc2NC(=O)Nc2ccc(OCCN3CCOCC3)c3ccccc23)cc1", "satisfied"),
    ("CNCc1ccc(-c2[nH]c3cc(F)cc4c3c2CCNC4=O)cc1", "not satisfied"),
    ("COc1cc2ncnc(Nc3cccc(Cl)c3)c2cc1OC", "satisfied"),
    ("CC(C)(C)c1nc(-c2cccc(NS(=O)(=O)c3c(F)cccc3F)c2F)c(-c2ccnc(N)n2)s1", "satisfied"),
    ("COc1cc2nccc(Oc3ccc(NC(=O)C4(C(=O)Nc5ccc(F)cc5)CC4)cc3)c2cc1OC [S14, Cabozantinib]", "satisfied"),
]

Problem: Identify whether the compound CN1CCc2cccc3c2[C@@H]1Cc1ccc(O)c(O)c1-3 records activity at 20 µM below 8%.
Result: satisfied

Problem: Identify whether the compound O=C(Nc1ccc([N+](=O)[O-])cc1Cl)c1cc(Cl)ccc1O [S72, Niclosamide] records activity at 20 µM below 8%.
Result: satisfied

Problem: Identify whether the compound CC1(C)CNc2cc(NC(=O)c3cccnc3NCc3ccncc3)ccc21 records activity at 20 µM below 8%.
Result: not satisfied

Problem: Identify whether the compound O=C(Nc1cccc2c(=O)cc(-c3nnn[nH]3)oc12)c1ccc(OCCCCc2ccccc2)cc1 records activity at 20 µM below 8%.
Result: not satisfied

====

Measured Kd on Wt-hMLKL (Homo sapiens) follows.
Sequence (Q8NB16 whole entry): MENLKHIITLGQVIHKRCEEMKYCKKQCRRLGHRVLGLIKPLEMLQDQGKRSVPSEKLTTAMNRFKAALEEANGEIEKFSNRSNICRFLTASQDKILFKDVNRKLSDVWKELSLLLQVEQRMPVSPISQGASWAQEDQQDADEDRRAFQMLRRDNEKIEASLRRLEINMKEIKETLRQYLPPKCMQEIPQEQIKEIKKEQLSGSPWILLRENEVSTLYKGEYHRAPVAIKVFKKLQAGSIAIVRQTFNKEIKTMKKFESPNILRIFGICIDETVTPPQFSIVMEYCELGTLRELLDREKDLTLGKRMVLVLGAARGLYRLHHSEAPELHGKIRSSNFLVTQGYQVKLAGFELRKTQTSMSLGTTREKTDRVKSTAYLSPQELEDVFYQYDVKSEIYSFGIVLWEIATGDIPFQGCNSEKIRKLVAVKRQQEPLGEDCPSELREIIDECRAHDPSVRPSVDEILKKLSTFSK
Lab note: write values as number then unit, every time.

CN1CCc2cccc3c4c(cc1c23)C=CC(=O)C4=O has a reported Kd of 5 nM

CN1CCc2cccc3c2C1Cc1ccc(O)c(O)c1-3 (centres unmarked) has a reported Kd of 244 nM

====

Test system: p-MLKL
Method summary: Western blot of phosphorylated MLKL in whole cell lysates
Assay type: cell-based, human
Condition: Homo sapiens; THP-1, TBZ and 20 μM compound, 8 h, whole cell lysates; read-out: p-MLKL/MLKL ratio relative to TBZ-treated cells (% Value)
Checkbox rule: activity at 20 µM lower than 40% = Fulfilled; activity at 20 µM not lower than 40% = Not fulfilled.

# Compound, Assigned category
records = [
    ("Cc1ncc(-c2ccnc(Nc3ccc(S(C)(=O)=O)cc3)n2)n1C(C)C", "Not fulfilled"),
    ("CC1(C)CC[C@]2(C(=O)O)CC[C@]3(C)[C@H](C(=O)C=C4[C@@]5(C)C=C(C#N)C(=O)C(C)(C)[C@@H]5CC[C@]43C)[C@@H]2C1", "Fulfilled"),
]

Kindly consider the entry below.
Problem: Identify whether the compound CC(=O)Oc1ccccc1C(=O)Nc1ncc([N+](=O)[O-])s1 [S15, Nitazoxanide] records activity at 20 µM below 40%.
Result: Not fulfilled

====

System: THP-1 cells
Method summary: PI uptake assay after TBZ treatment
Format: cell-based
Condition: Homo sapiens; THP-1, TBZ, 8 h
Attribute measured: IC50 (µM)
Write the number in µM without appending the unit.

CN1CCc2cccc3c2[C@@H]1Cc1ccc(O)c(O)c1-3 has a reported IC50 of 5.7

====

Property: activity at 20 µM; scope: individual compounds
Test system: THP-1-HMGB1-Lucia cells
Method summary: TBZ-induced necroptosis screening by HMGB1-luciferase release
Type: cell-based, human
Condition: Homo sapiens; 20 μM compound with TBZ, 8 h; TBZ alone = 100, DPBS = 0; read-out: % Inhibition (luciferase activity relative to TBZ-treated supernatant)
Write the number in % without appending the unit.

// below: answered compounds
# Compound, activity at 20 µM [%]
measured = [
    ("N#CC1(c2ccc(NC(=O)c3cccnc3NCc3ccncc3)cc2)CCCC1 [S43, Apatinib]", 3.4),
    ("Cc1ccc(Nc2nccc(N(C)c3ccc4c(C)n(C)nc4c3)n2)cc1S(N)(=O)=O [S10, Pazopanib]", 9.4),
]

As a next step, examine the compound that follows.
CCc1c(Cl)c(O)c(Cl)c(O)c1C(=O)O[C@H]1[C@H](O)[C@H](OC)[C@H](OC/C2=C\C=C\C[C@H](O)/C(C)=C/[C@H](CC)[C@@H](O[C@@H]3OC(C)(C)[C@@H](OC(=O)C(C)C)[C@H](O)[C@@H]3O)/C(C)=C/C(C)=C/C[C@@H]([C@@H](C)O)OC2=O)O[C@@H]1C [S5, Fidaxomicin] has a reported activity at 20 µM of 5.9

====

System: p-MLKL
Method summary: Western blot of phosphorylated MLKL in whole cell lysates
Assay type: cell-based, human
Condition: Homo sapiens; THP-1, TBZ and 20 μM compound, 8 h, whole cell lysates; read-out: p-MLKL/MLKL ratio relative to TBZ-treated cells (% Value)
Property: activity at 20 µM; scope: individual compounds
Write the number in % without appending the unit.

// below: answered compounds
# Compound, activity at 20 µM, %
rows = [
    ("C=C1C(=O)O[C@@H]2/C=C(\\C)CC/C=C(\\C)CC[C@@H]12 [S35, Costunolide]", 30),
    ("CC(C)(C)c1nc(-c2cccc(NS(=O)(=O)c3c(F)cccc3F)c2F)c(-c2ccnc(N)n2)s1", 0),
    ("O=C(Nc1ccc(Br)cc1)c1cccc(S(=O)(=O)Nc2ccc(Br)cc2)c1", 55),
]

As a next step, examine the compound that follows.
COc1cc2nccc(Oc3ccc(NC(=O)Nc4cc(C)on4)c(Cl)c3)c2cc1OC has a reported activity at 20 µM of 18

====

Property: activity at 20 µM; scope: individual molecules
System: p-MLKL
Method summary: Western blot of phosphorylated MLKL in whole cell lysates
Assay type: cell-based, human
Condition: Homo sapiens; THP-1, TBZ and 20 μM compound, 8 h, whole cell lysates; read-out: p-MLKL/MLKL ratio relative to TBZ-treated cells (% Value)
Write the number in % without appending the unit.

# Molecule, Value reported
rows = [
    ("Cc1ccc(Nc2nccc(N(C)c3ccc4c(C)n(C)nc4c3)n2)cc1S(N)(=O)=O", 86),
]

COc1cc2ncnc(Nc3cccc(Cl)c3)c2cc1OC has a reported activity at 20 µM of 70

CCCCC1C(=O)N(c2ccccc2)N(c2ccc(O)cc2)C1=O (centres unmarked) has a reported activity at 20 µM of 38

CN1CCc2cccc3c2[C@@H]1Cc1ccc(O)c(O)c1-3 has a reported activity at 20 µM of 100

O=C(Nc1ccc([N+](=O)[O-])cc1Cl)c1cc(Cl)ccc1O [S72, Niclosamide] has a reported activity at 20 µM of 35

====

Sequence of the target: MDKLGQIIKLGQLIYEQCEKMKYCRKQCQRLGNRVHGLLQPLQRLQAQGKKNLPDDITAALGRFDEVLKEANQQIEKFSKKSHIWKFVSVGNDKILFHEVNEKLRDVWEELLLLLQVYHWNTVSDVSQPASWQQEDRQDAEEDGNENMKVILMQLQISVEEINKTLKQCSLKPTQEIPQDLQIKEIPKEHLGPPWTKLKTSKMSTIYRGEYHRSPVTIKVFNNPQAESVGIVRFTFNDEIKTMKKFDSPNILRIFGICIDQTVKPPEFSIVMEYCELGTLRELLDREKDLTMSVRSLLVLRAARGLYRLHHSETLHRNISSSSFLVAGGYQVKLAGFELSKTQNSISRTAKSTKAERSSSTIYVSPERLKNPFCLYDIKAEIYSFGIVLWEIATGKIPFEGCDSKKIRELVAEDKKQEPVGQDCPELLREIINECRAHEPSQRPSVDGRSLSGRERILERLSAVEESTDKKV
Attribute measured: Kd (nM)
Write the number in nM without appending the unit.

# Compound, Attribute measured, Value reported
data = [
    ("CN1CCc2cccc3c2C1Cc1ccc(O)c(O)c1-3 (centres unmarked) [Re-APO]", "Kd", 22.9),
]

CN1CCc2cccc3c4c(cc1c23)C=CC(=O)C4=O [Ox-APO] has a reported Kd of 0.381

From: paper PMC12518639
